Listed next: entries and their corresponding protein stability index.
B1: C10orf62 (parent)
chain: TSECPSDKDKSPESHKAKNESWIK

Variants of: B1
procedure details: protein stability index of a GFP-peptide fusion (GPS, HEK-293T) (PSI 1-6); higher = more stable;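 note: lentivirally expressed fusions sorted by FACS into six bins by GFP to DsRed ratio, PSI derived from sequencing read proportions per bin multiplied by bin number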
run parameters: c terminus: a fixed tail appended
parameter: protein stability index

> print(dat)
                               seq  observed.measurement
1   TSPCPSDKDKSPESHKAKNESWIK [E3P]                  4.09
2   TCECPSDKDKSPESHKAKNESWIK [S2C]                  3.96
3   TSECPSDRDKSPESHKAKNESWIK [K8R]                  3.95
4  TSECPSDKDKSPESHKAKDESWIK [N19D]                  3.99
5  TSECPSDKDKSPESHVAKNESWIK [K16V]                  3.95
